Where do these numbers come from? They come from PubChem BioAssay (NCI).

Entries with their measured GI50, system MDA-MB-435:

COc1ccc(/C(C#N)=C/c2ccccc2OC)cc1 :: 1.95 µM

Query: Provide value of GI50 for this record tested with MDA-MB-435: "COc1ccc(-c2c3c(N)nc(-c4ccncc4)nc3nc3c2c(C)nn3-c2ccccc2)cc1"
Reply: 5.29 µM

Query: Provide value of GI50 for this record tested with MDA-MB-435: "COc1cccc(-n2ncc3c(N/N=C/c4ccc(C(=O)NCCN(C)C)cc4)ncnc32)c1"
Reply: 1.93 µM

----------
test system: UO-31 renal; assay: NCI tumour cell line growth inhibition, 48 h
Where a SMILES comes first, the peptide text is derived from it. [ ]: non-standard residue; d: D form. The star is where a group is joined. X28 = COC1=CC(=O)N(C(=O)[C@@H](O*)C(C)C)[C@H]1Cc1ccccc1; NMeV = CN[C@H](C(=O)O)C(C)C; Hexanoyl = CCCCCC(=O)*
Entries annotated with measured TGI

Here's what some known entries look like.
NNC(=O)/C(=C/c1ccc(Cl)cc1Cl)NC(=O)c1ccccc1 :: > 100 µM
NC(=O)N/N=C1\CCCCc2ccccc21 :: > 10 µM
CCCCCC(=O)N[C@H](C(=O)N[C@H](C(=O)N(C)[C@H](C(=O)N1CCC[C@H]1C(=O)N1CCC[C@H]1C(=O)O[C@H](C(=O)N1C(=O)C=C(OC)[C@@H]1Cc1ccccc1)C(C)C)C(C)C)C(C)C)C(C)C (Hexanoyl-VV[NMeV]PP-X28) :: > 100 µM

Query: Requested read-out: TGI. Entry: "CCOC(=O)c1cc(NS(=O)(=O)c2ccccc2)cc(C(=O)OCC)c1"
Reply: > 100 µM

Query: Requested read-out: TGI. Entry: "Cc1ccc(C(=O)c2nnc(C(=O)c3ccc(C)cc3)nn2)cc1"
Reply: > 100 µM

----------
system: NCI-H522 lung; assay: NCI tumour cell line growth inhibition, 48 h
Entries annotated with measured TGI

ONc1ncnc2nc[nH]c12 :: > 100 µM
CCCC(=O)OC1C(C(O)CO)OC2OC(C)(C)OC21 (stereo unspecified) :: > 100 µM
CNC(=O)OC(C)CN1c2ccccc2Sc2ccc(Cl)cc21 (stereo unspecified) :: > 10 µM

Query: Requested read-out: TGI. Entry: "CCCCCCCCN=C(N)c1ccc(N2CCN(c3ccc(C(N)=NCCCCCCCC)cc3)CC2)cc1"
Reply: > 50 µM

Query: Requested read-out: TGI. Entry: "CCN(CC)c1ccc(C(=O)c2ccccc2C(=O)O)c(O)c1"
Reply: > 100 µM

Query: Requested read-out: TGI. Entry: CCCC1(NC(=O)C(F)(F)F)CC(OC)OC2COC(c3ccccc3)OC21 (stereo unspecified)
Reply: > 100 µM

----------
tested on: TK-10 renal; assay: NCI tumour cell line growth inhibition, 48 h
Entries annotated with measured TGI

COc1cccc(-c2c(C#N)c(N)nc3c2CCS(=O)(=O)c2ccc(C)cc2-3)c1 :: > 100 µM

Query: Requested read-out: TGI. Entry: CCOC(=O)c1c(N)sc2c1C(C(=O)OCC)CC2 (configuration not stated)
Reply: > 100 µM

Query: Requested read-out: TGI. Entry: "CCN(CC)c1ccc(C(=O)c2ccccc2C(=O)O)c(O)c1"
Reply: > 100 µM

Query: Requested read-out: TGI. Entry: "O=c1/c(=C/c2ccccc2F)sc2nc3ccccc3n12"
Reply: > 100 µM

Query: Requested read-out: TGI. Entry: "CC1=C(C)C(=O)c2c(cc3ccccn23)C1=O"
Reply: 55.9 µM

Query: Requested read-out: TGI. Entry: "CCN(CC)CSc1nc2ccccc2s1"
Reply: > 100 µM

Query: Requested read-out: TGI. Entry: O=C1C=C2C(=NC34CCCCC3C(c3ccccc3)C3=C(c5ccccc5CC3)N24)c2ccccc21 (configuration not stated)
Reply: > 10 µM

----------
system: SK-MEL-2 melanoma; experiment: NCI tumour cell line growth inhibition, 48 h
Entries annotated with measured TGI
Report the value in µM with no unit label.

Query: Provide value of TGI for this record tested with SK-MEL-2 melanoma: CC(CCC(=O)O)[C@H]1CCC2[C@@H]3CC[C@@H]4CC(O)CC[C@]4(C)C3CC[C@@]21C (some centres not stated)
Reply: 87.1

Query: Provide value of TGI for this record tested with SK-MEL-2 melanoma: "COC(=O)[C@H](C[C@H](Cc1ccccc1)NC(=O)c1csc([C@@H](C[C@H](C(C)C)N(C)C(=O)[C@@H](NC(=O)[C@H]2CCCCN2C)C(C)C)OC(C)=O)n1)NC(=O)OCc1ccccc1"
Reply: 4.53

Query: Provide value of TGI for this record tested with SK-MEL-2 melanoma: COc1cc(C=C2C(C)=NN(c3cccc(Cl)c3)C23SCC(=O)N3c2nc3ccccc3s2)ccc1O (configuration not stated)
Reply: 39.5

Query: Provide value of TGI for this record tested with SK-MEL-2 melanoma: "Nc1ccccc1C#C/C=C\C#Cc1cccs1"
Reply: 43.3

Query: Provide value of TGI for this record tested with SK-MEL-2 melanoma: "N=C(N)c1ccc(-c2ccc(-c3cc(Cl)cc(Cl)c3)o2)nc1"
Reply: 3.9

----------
test system: U251 CNS; experiment: NCI tumour cell line growth inhibition, 48 h
Entries annotated with measured TGI

Here's what some known entries look like.
COC(=O)C(=O)C1(CCC(C)=O)c2ccccc2-c2c(C)ccc(C)c21 (configuration not stated) :: > 100 µM
Cc1nc2cccc(F)c2c(=O)n1C1CCCCNC1=O (configuration not stated) :: > 10 µM
CC(C)(Br)C(Br)CCC(C)(Br)C(Br)CO (configuration not stated) :: > 10 µM
N#CC12C(=O)N3C(=NC(c4ccccc4)NC3c3ccccc3)C1(C#N)C(c1ccccc1)NC1=C2CCC1 (configuration not stated) :: > 100 µM
Cc1cccc2nc3c(C(=O)NCCN(C)C)cccc3cc12 :: 8.63 µM
CCOP(=O)(OCC)C1CC(O)C(=O)N1 (configuration not stated) :: > 100 µM

Pending compound:
Query: Requested read-out: TGI. Entry: CC1SC(c2ccccc2)N(CCc2cccs2)C1=O (configuration not stated)
Reply: 14.5 µM

----------
system: SNB-19 CNS; assay: NCI tumour cell line growth inhibition, 48 h
Entries annotated with measured TGI

Query: Provide value of TGI for this record tested with SNB-19 CNS: "CC(C)[C@H]1CO[C@]2(C)[C@@H]3CN(Cc4ccccc4)C[C@@H]3C(=O)N12"
Reply: > 100 µM

Query: Provide value of TGI for this record tested with SNB-19 CNS: O=C(CCC(NC(=O)OCc1ccccc1)C(=O)OCc1ccccc1)Nc1ccc(OCc2ccccc2)cc1 (stereo not drawn)
Reply: > 31.6 µM

Query: Provide value of TGI for this record tested with SNB-19 CNS: CCCC1(NC(=O)C(F)(F)F)CC(OC)OC2COC(c3ccccc3)OC21 (stereo not drawn)
Reply: > 100 µM

----------
system: SF-268 CNS; experiment: NCI tumour cell line growth inhibition, 48 h
Entries annotated with measured GI50

CCCCC(CC)CN=C(N)NC(N)=NCCCCCCN=C(N)NC(N)=NCC(CC)CCCC (stereo not given) :: 1.63 µM

Pending compound:
Query: Requested read-out: GI50. Entry: "COc1ccc2sc3c(NCCCN(C)C)nc4ccccc4c3c(=O)c2c1"
Reply: 1.67 µM

----------
test system: NCI/ADR-RES ovarian; assay: NCI tumour cell line growth inhibition, 48 h
Result type: TGI (µM)
Report the value in µM with no unit label.

Here's what some known entries look like.
O=C(/C=C(\O)c1ccccc1)C(=O)NNc1ccc([N+](=O)[O-])cc1[N+](=O)[O-] :: 36.6
O=C1C(Cl)=C(OCCCCl)C(=O)c2c(O)ccc(O)c21 :: 24.3
COC(=O)[C@H](C[C@H](Cc1ccccc1)NC(=O)c1csc([C@@H](C[C@H](C(C)C)N(C)C(=O)[C@@H](NC(=O)[C@H]2CCCCN2C)C(C)C)OC(C)=O)n1)NC(=O)OCc1ccccc1 :: 1.52
CC1SC(c2ccccc2)N(CCc2cccs2)C1=O (centres undefined) :: 21.1
C[C@@H]1C[C@H]2CC[C@H](O2)[C@H](C)C(=O)O[C@@H](C)C[C@@H]2CC[C@@H](O2)[C@@H](C)C(=O)O[C@H](C)C[C@H]2CC[C@H](O2)[C@H](C)C(=O)O[C@@H](C)C[C@@H]2CC[C@@H](O2)[C@@H](C)C(=O)O1 :: 21

Query: Requested read-out: TGI. Entry: "N#Cc1c(N2CCCC2)[nH]c(=O)c(C(c2c(Cl)cccc2Cl)c2c(O)c(C#N)c(N3CCCC3)[nH]c2=O)c1O"
Reply: 33.8

Query: Requested read-out: TGI. Entry: "COc1ccc2sc3c(NCCCN(C)C)nc4ccccc4c3c(=O)c2c1"
Reply: 3.28

----------
Entries annotated with measured TGI
system: SK-MEL-2 melanoma; assay: NCI tumour cell line growth inhibition, 48 h

Here's what some known entries look like.
COc1ccc(/C=C(/C#N)C(N)=O)cc1OC :: > 100 µM
CCc1nccc2c1nc(-c1nonc1N)n2CC :: > 25 µM
CC1SC2=NC3=C(c4ccccc4C3=O)C(c3ccc(F)cc3)N2C1=O (centres undefined) :: > 100 µM

Query: Requested read-out: TGI. Entry: "CCN(CC)c1ccc(C(=O)c2ccccc2C(=O)O)c(O)c1"
Reply: > 100 µM
